Target: eOD-GT8 (monomeric ligand) (Human immunodeficiency virus 1, …)
observed.property: pKd
A value of pKd is the negative decimal logarithm of a concentration given in moles per litre.

1) g28v2-D46-10_CLK19 (antibody, V domains shown) VH: QVQLVQSGAEVKRPGASVRVSCKASGYTFTGYYMHWVRQAPGQGLEWMGWINPNRGGVNYAHKFQGRVTMTRDTSISTAYMDLSRLRSDDTAVFYCTTALAGHGWRFDYWGQGTLVTVSS VL: NIQMTQSPSSLSASVGDRVTITCQASQDTSNYLNWYQQKPGKAPKLLIYDASNLETGVPSRFSGSGSGTDFTFTISGLQPEDIATYYCQQYETFGPGTKVDIK = 8.87

Next binder, please.
Fill in: pKd of g28-D78-16_CLK09 (antibody, V domains shown) VH: QVQLVQSGAEVKKPGASVKVSCKASGYTFTGYHIHWVRQAPGQGLEWMGWVNPYHGGTNYAQIFQGRVTMTRDTSISTAYMELSRLRSDDTAVYYCALWFGEKKTFDIWGQGTMVTVSS VL: DIQMTQSPSSLSASVGDRVTITCQASQGISNFLNWFQQKPGKAPKLLIYDVSNLETGVPSRFSGSGSGTDFTFTISSLQPEDIATYYCQQYEFFGGGTKVEIK is ___
6.89

Where do these numbers come from? They come from paper PMC11488661.
